System: OVCAR-4 ovarian
Test: NCI-60 one-dose screen, 48 h
Settings: 10 µM unless noted
The panel holds about 83,000 compounds, 20% with a hit somewhere; the sample as a whole holds those more often. Activity calls are given as the source filed them. The calls were made as follows: active = growth percent below 10; inactive = the rest.
Outcome codes: active, inactive

# MOLECULE, CATEGORY LABEL
records = [
    ("O=C(Nc1ccccc1)Nc1ncnc2c1ncn2-c1ccc(Cl)cc1", "active"),
    ("CC(=O)/C(=C\\c1c(-c2ccccc2)[nH]c2ccccc12)S(C)(=O)=O", "active"),
    ("COc1ccc(/C=C(\\C#N)n2nnc3cc(Cl)ccc32)cc1", "inactive"),
    ("COc1cc(/C=C2/C=C(c3ccccc3)N(CCc3ccc(S(N)(=O)=O)cc3)C2=O)cc(OC)c1OC", "inactive"),
    ("COc1cc2c(cc1OC)C(C)N(S(N)(=O)=O)CC2 (centres undefined)", "inactive"),
    ("COc1cc2cc(NCc3cccc(Cl)c3)nc(C)c2cc1OC", "inactive"),
    ("CN1C(=O)/C(=C\\c2nc([P+](c3ccccc3)(c3ccccc3)c3ccccc3)c(N3CCOCC3)o2)SC1=S", "inactive"),
    ("CN1CCN(C(=O)c2ccc(NC(=O)c3cc4c(nn3)NCCN4Cc3cc(Cl)ccc3Cl)cc2)CC1", "inactive"),
    ("CCOC(=O)c1cc(C)n(-c2ccc(C(=O)O)cc2)c1C", "inactive"),
    ("Cn1c(=O)cc2c3c(c(NCCCO)ccc31)C(=O)c1ccccc1-2", "inactive"),
    ("Nc1nc2ccccc2c2c(=O)c3cccc(Cl)c3sc12", "inactive"),
    ("CCOC(=O)C/C(=N\\Nc1cc(=O)[nH]c2ccc(Br)cc12)C(=O)OCC", "inactive"),
    ("COc1ccc(OC)c(Nc2nnc(-c3ccc(O)c(OC)c3)o2)c1", "inactive"),
    ("Cc1cc(S(=O)(=O)/N=C(\\N)n2nc(C)c(C)c2C)c(SCc2ccccc2)cc1Cl", "inactive"),
    ("CCOC(=O)C1=C(c2ccccc2)N=C2SC=C(c3ccc(Cl)cc3)N2C1c1ccc(Cl)cc1 (centres undefined)", "inactive"),
    ("C=C(CBr)[C@@H]1CC[C@]2(C(=O)O)CC[C@]3(C)[C@H](CC[C@@H]4[C@@]5(C)CCC(=O)C(C)(C)[C@@H]5CC[C@]43C)[C@@H]12", "inactive"),
    ("CCCCCCCCCCCCCCCCOCCCOP(=O)(O)C1CCCN(O)C1=O (centres undefined)", "inactive"),
    ("CC(C)(C)CC(C)(C)NC(=O)Nc1ncccc1OCc1ccccc1", "inactive"),
    ("Cc1nc2sc(C(=O)Nc3ccc(Br)cc3)c(N)c2cc1C(O)c1ccccc1 (centres undefined)", "inactive"),
    ("COCCn1cc(-c2nc(-c3cc4cccnc4[nH]3)cs2)c2cc(OC)ccc21", "inactive"),
    ("C#CCNC(=O)[C@H](CC)[C@H]1CC[C@H](C)[C@H]([C@@H](C)[C@H](O)[C@H](C)C(=O)[C@H](CC)C2O[C@]3(C=CC(=O)[C@]4(CC[C@@](C)([C@H]5CC[C@](O)(CC)[C@H](C)O5)O4)O3)[C@H](C)C[C@@H]2C)O1 (some centres undefined)", "inactive"),
    ("CN1C(=O)/C(=C\\c2c(Cl)cccc2Cl)c2ccccc21", "inactive"),
    ("CC(C)C1=NOC(=O)C1=Cc1cn(-c2ccccc2)nc1-c1ccc(F)cc1", "inactive"),
    ("CCOC(=O)[C@@H]1CSC(CC)=C(C(=O)O)N1", "inactive"),
    ("N#Cc1c(-c2ccccc2)cc(-c2ccccc2)n(CCCC(=O)Nc2ccccc2N)c1=O", "inactive"),
    ("CC(O)(c1ccccc1)C(c1ccccc1)C1CCCCN1 (centres undefined)", "inactive"),
    ("COc1ccc(NC2=C(I)C(=O)c3ncccc3C2=O)cc1", "active"),
    ("NC(=O)CSc1oc(-c2ccccc2)nc1S(=O)(=O)c1ccc(Br)cc1", "inactive"),
    ("NS(=O)(=O)c1ccc(N=Nc2c(O)n(Cc3ccccc3)c3ccc(Cl)cc23)cc1", "inactive"),
    ("COc1cc2c(cc1OCCCN1CCN(CCCOc3cc4c(cc3OC)C(=O)N3CCC[C@H]3C=N4)CC1)C=CC(C)(C)O2", "active"),
    ("O=C(CSc1nc2ccc([N+](=O)[O-])cc2[nH]1)Nc1ccc([N+](=O)[O-])cc1", "active"),
    ("C=CCN=c1sc2c(n1NC(=O)c1cc3ccc1CCc1ccc(cc1)CC3)C(=O)c1ccccc1C2=O", "active"),
    ("COc1cc(C2c3cc(OC(C)=O)c(OC)cc3CC3C(=O)OCC32)ccc1OC(C)=O (centres undefined)", "inactive"),
    ("O=C(NCc1ccc(Cl)cc1Cl)C1CCC(=O)N1c1cccs1 (centres undefined)", "inactive"),
    ("NC(N)=NCCCCCNc1noc(Cc2c[nH]c3cc(Br)ccc23)n1", "inactive"),
    ("C=CCn1c(SCC(=O)Nc2ccc(C(=O)/C=C/c3ccc(Cl)cc3)cc2)nnc1-c1ccc(Br)cc1", "inactive"),
    ("COc1cc(OC)c(/C=C/C(=O)c2c(OC)cccc2OC)c(OC)c1", "inactive"),
    ("N#C/C(=C\\c1c(-c2ccccc2)[nH]c2ccccc12)C(N)=O", "inactive"),
    ("Nc1ncnc2c1c(-c1cccc(Cl)c1)nn2CC(=O)N1CCOCC1", "inactive"),
]

Provenance of the data: PubChem BioAssay (NCI)
